Values compiled from paper PMC9742164.

Target: E. coli DNA topoisomerase IV (Escherichia coli)
Sequence (P20083 whole entry): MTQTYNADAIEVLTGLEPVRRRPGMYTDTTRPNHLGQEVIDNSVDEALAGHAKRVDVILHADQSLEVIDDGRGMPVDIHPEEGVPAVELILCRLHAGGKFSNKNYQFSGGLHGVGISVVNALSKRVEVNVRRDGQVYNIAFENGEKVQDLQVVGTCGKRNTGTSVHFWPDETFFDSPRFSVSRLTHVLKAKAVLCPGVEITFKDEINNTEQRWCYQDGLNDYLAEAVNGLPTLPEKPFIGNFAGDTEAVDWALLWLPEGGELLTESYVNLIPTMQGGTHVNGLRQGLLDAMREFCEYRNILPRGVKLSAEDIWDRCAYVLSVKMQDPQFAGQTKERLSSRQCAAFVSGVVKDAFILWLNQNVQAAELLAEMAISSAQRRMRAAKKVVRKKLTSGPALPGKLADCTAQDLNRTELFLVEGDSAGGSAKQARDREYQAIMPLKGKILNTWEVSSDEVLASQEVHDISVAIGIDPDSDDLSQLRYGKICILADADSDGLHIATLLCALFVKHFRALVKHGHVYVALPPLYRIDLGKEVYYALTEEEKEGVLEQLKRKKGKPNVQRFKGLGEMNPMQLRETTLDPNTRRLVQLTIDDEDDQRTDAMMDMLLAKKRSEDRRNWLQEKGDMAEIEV
Sequence (P0AFI2 whole entry, further chain): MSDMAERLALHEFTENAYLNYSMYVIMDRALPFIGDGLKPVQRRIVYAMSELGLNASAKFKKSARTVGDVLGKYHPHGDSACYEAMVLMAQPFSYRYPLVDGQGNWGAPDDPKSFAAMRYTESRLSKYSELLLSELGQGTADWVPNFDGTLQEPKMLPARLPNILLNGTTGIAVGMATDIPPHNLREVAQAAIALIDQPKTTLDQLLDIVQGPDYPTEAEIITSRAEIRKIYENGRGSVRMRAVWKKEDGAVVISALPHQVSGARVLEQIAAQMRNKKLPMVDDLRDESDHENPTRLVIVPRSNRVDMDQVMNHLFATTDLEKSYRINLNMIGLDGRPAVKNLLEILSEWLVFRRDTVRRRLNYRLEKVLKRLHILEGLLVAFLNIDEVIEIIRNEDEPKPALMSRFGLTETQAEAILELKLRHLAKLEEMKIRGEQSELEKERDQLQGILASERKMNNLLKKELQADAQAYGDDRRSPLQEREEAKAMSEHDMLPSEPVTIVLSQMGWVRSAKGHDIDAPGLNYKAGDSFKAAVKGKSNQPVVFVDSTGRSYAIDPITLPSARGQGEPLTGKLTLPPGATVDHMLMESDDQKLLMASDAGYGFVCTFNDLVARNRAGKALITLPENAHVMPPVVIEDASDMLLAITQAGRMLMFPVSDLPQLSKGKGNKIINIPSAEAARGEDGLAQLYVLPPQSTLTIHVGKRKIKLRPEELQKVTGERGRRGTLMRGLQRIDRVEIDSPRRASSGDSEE
Test: Gel-based DNA relaxation assay by topoisomerase IV
Assay type: biochemical
Conditions: IC50 against E. coli topoisomerase IV, Gel-based, relaxation
Some compounds, each annotated with its measured pIC50.
Keep in mind that pIC50 stands for -log10 of concentration in molar terms.

Below: 2 compounds and their reported pIC50.
Please report the recorded pIC50 for CCCCCCCCOC(=O)c1cc(O)c(O)c(O)c1 [Octyl gallate, octyl gallate] .
4.30

Endpoint output: pIC50 of O=C(O)c1cc(O)c(O)c(OC(=O)c2cc(O)c(O)c(O)c2)c1 [Digallic acid, digallic acid] . Value?
5.10

New cases:
Can you look up the measured pIC50 of CCCCCCCCCCCCOC(=O)c1cc(O)c(O)c(O)c1 [Dodecyl gallate, dodecyl gallate] for me?
4.30
